System: Mycobacterium tuberculosis
Experiment: Antitubercular activity against isoniazid/rifampicin multidrug-resistant Mycobacterium tuberculosis FJ05120 clinical isolates assessed as bacterial growth inhibition by MABA
Assay type: functional
Provide the recorded MIC for the entries that follow.
// return numeric value only (unit: µM, not printed)

Challenge: Fill in reported MIC for this entry: CC[C@@H](CO)NCCN[C@@H](CC)CO
Response given: 4.89

Challenge: Fill in reported MIC for this entry: Cc1nnsc1C(=O)Nc1nc2cc(C(C)(C)C)ccc2o1
Response given: 0.4

Challenge: Fill in reported MIC for this entry: Cc1nnsc1C(=O)Nc1nc2ccc(Cl)cc2o1
Response given: 0.42

Challenge: Fill in reported MIC for this entry: Cc1nnsc1C(=O)Nc1nc2cc(Cl)ccc2o1
Response given: 1.7

Challenge: Fill in reported MIC for this entry: O=C(Nc1nc2ccccc2o1)c1ccccc1
Response given: 537

Challenge: Fill in reported MIC for this entry: Cc1nnsc1C(=O)Nc1nc2c(ccc3ncccc32)o1
Response given: 25.7

Challenge: Fill in reported MIC for this entry: Cc1nnsc1C(=O)Nc1nc2c(-c3ccccn3)cccc2o1
Response given: 23.7

Challenge: Fill in reported MIC for this entry: Cc1nnsc1C(=O)Nc1nc2cc(Br)ccc2o1
Response given: 1.47

Challenge: Fill in reported MIC for this entry: Cc1nnsc1C(=O)Nc1nc2cc(-c3ccccn3)ccc2o1
Response given: 0.37

Challenge: Fill in reported MIC for this entry: COC(=O)c1ccc(-c2ccc3oc(NC(=O)c4snnc4C)nc3c2)cc1
Response given: 0.63

Challenge: Fill in reported MIC for this entry: Cc1nnsc1C(=O)Nc1nc2c(Br)cccc2o1
Response given: 0.74

Challenge: Fill in reported MIC for this entry: Cc1nnsc1C(=O)Nc1nc2ccccc2s1
Response given: 57.9

Challenge: Fill in reported MIC for this entry: Cc1nnsc1C(=O)Nc1nc2c(ccc3cccnc32)o1
Response given: 6.42

Challenge: Fill in reported MIC for this entry: Cc1ccc2oc(NC(=O)c3snnc3C)nc2c1
Response given: 7.29

Challenge: Fill in reported MIC for this entry: Cc1nnsc1C(=O)Nc1nc2c(OCc3ccccn3)cccc2o1
Response given: 2.72

Challenge: Fill in reported MIC for this entry: O=C(Nc1nc2ccccc2o1)c1cccs1
Response given: 32.8

Challenge: Fill in reported MIC for this entry: O=C(Nc1nc2ccccc2o1)c1ccc(Cl)s1
Response given: 14.3

Challenge: Fill in reported MIC for this entry: Cc1nnsc1C(=O)Nc1nc2cc(F)ccc2o1
Response given: 0.45

Challenge: Fill in reported MIC for this entry: Cc1nnsc1C(=O)Nc1nc2c(ccc3ccccc32)o1
Response given: 103

Challenge: Fill in reported MIC for this entry: Cc1nnsc1C(=O)Nc1nc2cc(-c3cccnc3)ccc2o1
Response given: 1.48

Challenge: Fill in reported MIC for this entry: Cc1nnsc1C(=O)Nc1nc2ccc(C(C)(C)C)cc2o1
Response given: 6.32

Challenge: Fill in reported MIC for this entry: Cc1nnsc1C(=O)Nc1nc2c(Oc3ncccn3)cccc2o1
Response given: 5.64

Challenge: Fill in reported MIC for this entry: Cc1nnsc1C(=O)Nc1nc2ccccc2[nH]1
Response given: 30.9
